# target_under_test: MERTK (UniProt Q12866)
# Sequence (Q12866 whole entry, looked up): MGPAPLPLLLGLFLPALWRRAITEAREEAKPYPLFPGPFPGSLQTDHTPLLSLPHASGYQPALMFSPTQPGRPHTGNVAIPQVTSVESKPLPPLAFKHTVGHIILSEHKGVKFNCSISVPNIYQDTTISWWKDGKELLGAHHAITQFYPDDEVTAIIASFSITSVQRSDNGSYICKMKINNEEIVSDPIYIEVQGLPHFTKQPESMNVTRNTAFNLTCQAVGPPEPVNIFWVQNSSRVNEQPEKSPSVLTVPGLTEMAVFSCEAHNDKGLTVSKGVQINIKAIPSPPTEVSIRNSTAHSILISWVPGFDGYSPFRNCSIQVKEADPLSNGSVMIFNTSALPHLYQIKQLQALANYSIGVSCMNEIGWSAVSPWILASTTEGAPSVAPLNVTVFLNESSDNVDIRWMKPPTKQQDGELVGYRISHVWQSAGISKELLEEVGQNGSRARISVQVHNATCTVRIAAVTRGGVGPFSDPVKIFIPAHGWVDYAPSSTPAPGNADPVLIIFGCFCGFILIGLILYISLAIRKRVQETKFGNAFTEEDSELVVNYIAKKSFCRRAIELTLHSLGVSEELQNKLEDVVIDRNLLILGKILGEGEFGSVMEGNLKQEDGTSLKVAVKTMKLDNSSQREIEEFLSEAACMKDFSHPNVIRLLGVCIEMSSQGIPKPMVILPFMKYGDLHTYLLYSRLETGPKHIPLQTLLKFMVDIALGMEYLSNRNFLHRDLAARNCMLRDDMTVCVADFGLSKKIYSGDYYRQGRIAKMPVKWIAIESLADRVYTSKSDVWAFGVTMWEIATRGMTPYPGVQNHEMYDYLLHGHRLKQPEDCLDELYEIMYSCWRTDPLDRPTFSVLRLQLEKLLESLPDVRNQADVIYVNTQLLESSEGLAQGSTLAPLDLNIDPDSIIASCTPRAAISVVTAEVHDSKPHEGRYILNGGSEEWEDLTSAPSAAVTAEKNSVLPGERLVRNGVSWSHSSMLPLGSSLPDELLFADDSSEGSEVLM
# assay_method_text: phosphorylation enrichment, bacterial display (enrichment ratio); higher = better substrate or ligand; peptides without Tyr show the background;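 also: 11-residue human phosphosite peptides and single-mutation variants displayed on the E. coli surface, counted by deep sequencing, each peptide's frequency after selection divided by its frequency in the unselected input library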;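 also: frequency after pTyr selection over input frequency; kinase dosed for 20-30% of maximal phosphorylation in three min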
Some sequences, each annotated with its measured phosphorylation enrichment.
Please respond with just the number, no unit label.

Prompt: Identify measured phosphorylation enrichment corresponding to PQDVTYAQLHS [LILRB4_Y412]
Completion: 0.645

Prompt: Identify measured phosphorylation enrichment corresponding to CTTIHYNFMCD [TP53_Y234_N239D_YF]
Completion: 0.424

Prompt: Identify measured phosphorylation enrichment corresponding to DAHFTYSRFPW [LY75_Y888_D884A_YF]
Completion: 3.89

Prompt: Identify measured phosphorylation enrichment corresponding to QDKDLYPCPGT [RLF_Y671_R668K]
Completion: 0.613

Prompt: Identify measured phosphorylation enrichment corresponding to ELCSEYHKSRK [SPINK5_Y440_R441H]
Completion: 0.532

Prompt: Identify measured phosphorylation enrichment corresponding to LNECHYGALIG [BPGM_Y92_R90C]
Completion: 0.741

###

# Tested on: AncSZ
# assay_method_text: phosphorylation enrichment, bacterial display (enrichment ratio); higher = better substrate or ligand; peptides without Tyr show the background
Some sequences, each annotated with its measured phosphorylation enrichment.
Please respond with just the number, no unit label.

In the examples that follow, each entry is paired with its recorded phosphorylation enrichment.
- chain_sequence: "VHSGTYQVMVR [MYBPC3_Y1043_T1046M]"
  number: 0.711
- chain_sequence: "ASENVYVNIAH [CTSC_Y150]"
  number: 0.881
- chain_sequence: "EAEPFYCSLRD [NPHS1_Y1139_R1140C_YF]"
  number: 1.54
- chain_sequence: "SNKLTYGTVVF [ACOX1_Y275_M278V]"
  number: 0.777

Prompt: Identify measured phosphorylation enrichment corresponding to EIRTQYEAMAS [GFAP_Y242]
Completion: 0.691

Prompt: Identify measured phosphorylation enrichment corresponding to RVFRDYVLKSA [HTATIP2_Y111_D108Y_YF]
Completion: 0.889

Prompt: Identify measured phosphorylation enrichment corresponding to CTTIHYNFMCD [TP53_Y234_N239D_YF]
Completion: 0.985

Prompt: Identify measured phosphorylation enrichment corresponding to "AKIDGYIISFR"
Completion: 1.1

Prompt: Identify measured phosphorylation enrichment corresponding to ERNAHYRTPKI [PTK2B_Y699_R698H]
Completion: 0.586

Prompt: Identify measured phosphorylation enrichment corresponding to QLLIKYPPEEV [ZZZ3_Y670]
Completion: 1.25

Prompt: Identify measured phosphorylation enrichment corresponding to LSTPEYGPKLK [TBC1D14_Y46_A43T]
Completion: 0.673

Prompt: Identify measured phosphorylation enrichment corresponding to TESALYGCTVV [KIAA1804_Y724_L729V]
Completion: 1.18

Prompt: Identify measured phosphorylation enrichment corresponding to ALKKPYGVLYK [RPF2_Y59]
Completion: 0.643

Prompt: Identify measured phosphorylation enrichment corresponding to FRQLQYCPSVE [CTNND2_Y508_YF]
Completion: 0.949

Prompt: Identify measured phosphorylation enrichment corresponding to FPPTHYIRRMP [SLC4A11_Y820_V824M_YF]
Completion: 0.919

Prompt: Identify measured phosphorylation enrichment corresponding to ETAENYLGHTA [HSPA9_Y181]
Completion: 0.858

Prompt: Identify measured phosphorylation enrichment corresponding to SAEEDYIADAK [KCNT1_Y876_M877I]
Completion: 1.22
